Assay: NCI Yeast Anticancer Drug Screen. Data for the mlh1 rad18 strain (AID 175)
Settings: S. cerevisiae mlh1 rad18 strain growth inhibition; at 50.0 µM
The panel holds about 79,000 compounds, 15% with a hit somewhere; the sample as a whole holds those more often. Active and inactive are the calls of the source. No stated cut-off is given here; in the data, active means growth inhibition above about 70%; inactive means the rest.
Your answer must be one of the following: Y = active, N = inactive

Observe how each entry below is paired with its result.
compound	category
CN(C)CCCN=c1c2ccccc2n(O)c2cccc([N+](=O)[O-])c12	N
O=C(COc1ccc(Cl)cc1Cl)Nc1cccc(C(F)(F)F)c1	N
C=C1C(=O)C23OC2C1CCC(=O)C1(C)CC[C@H](OC(C)=O)C(C)(C)[C@H]1CC3=O (stereo partly specified)	Y
O=C(NO)c1cccnc1	N
COC1OC(C(O)CO)C(O)C(O)C1O (stereo unspecified)	N
COc1cc2c(c3c1/c(=N/N(C)C)c1ccccc1n3C)C=CC(C)(C)O2	N
Cc1ccc(C23C=CC(c4ccccc4)(C2)C2C(=O)OC(=O)C23)cc1 (stereo unspecified)	Y
COC(=O)C1c2cc3c(cc2C(OC2OC(C)C(OC)C(C)(OC)C2OC)CC1(C)O)C(=O)c1c(O)cc2c(c1C3=O)OC1OC2(C)C(O)C([N+](C)(C)[O-])C1O (stereo unspecified)	N

Q: GET /call?item= CC(O)CN1CCN(CC(C)O)CC1.[I][Pt+2][I] (stereo unspecified) returns the recorded outcome of this test.
Ans: Y

Q: GET /call?item= O=[N+]([O-])c1cc([N+](=O)[O-])c2ccccc2c1NS(=O)(=O)/C=C/c1ccccc1 returns the recorded outcome of this test.
Ans: N
